- system.under.test: Human A2a AR (Homo sapiens)
- Sequence (P29274 whole entry): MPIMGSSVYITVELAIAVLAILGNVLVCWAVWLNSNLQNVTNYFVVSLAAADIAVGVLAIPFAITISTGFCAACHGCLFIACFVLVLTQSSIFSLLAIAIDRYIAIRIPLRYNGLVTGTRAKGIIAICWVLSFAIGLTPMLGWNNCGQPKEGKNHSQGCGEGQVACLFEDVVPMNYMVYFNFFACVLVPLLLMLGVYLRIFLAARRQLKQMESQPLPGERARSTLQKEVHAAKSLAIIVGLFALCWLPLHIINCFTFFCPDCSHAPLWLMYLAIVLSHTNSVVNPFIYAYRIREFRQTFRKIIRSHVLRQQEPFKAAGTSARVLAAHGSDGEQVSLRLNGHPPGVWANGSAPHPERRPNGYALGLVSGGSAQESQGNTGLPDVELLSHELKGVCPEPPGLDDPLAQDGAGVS
- assay.text: Radioligand binding, human A2a AR, 3H-CGS21680
- details: radioligand 3H-CGS21680
quantity.measured: Ki (µM)
# value in µM; strip the unit string

stdin: Would you kindly share the measured Ki for `CCN(CCO)CCn1c(Cc2ccccc2)nc2c1c(=O)n(C)c(=O)n2C` ?
stdout: 12.9

###

- system.under.test: Human A2b AR (Homo sapiens)
- Sequence (P29275 whole entry): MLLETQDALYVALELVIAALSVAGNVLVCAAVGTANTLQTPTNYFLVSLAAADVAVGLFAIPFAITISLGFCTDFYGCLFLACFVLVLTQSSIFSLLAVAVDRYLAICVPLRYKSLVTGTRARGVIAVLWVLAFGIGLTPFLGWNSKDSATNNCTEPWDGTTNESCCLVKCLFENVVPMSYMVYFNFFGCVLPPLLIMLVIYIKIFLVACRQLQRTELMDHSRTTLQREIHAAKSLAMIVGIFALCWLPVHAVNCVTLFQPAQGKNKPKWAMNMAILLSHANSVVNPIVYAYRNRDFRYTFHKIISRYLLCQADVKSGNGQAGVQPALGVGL
quantity.measured: IC50

stdin: Return IC50 measured with Human A2b AR (Homo sapiens) given this compound: `CCN(CCO)CCn1c(Cc2ccccc2)nc2c1c(=O)n(C)c(=O)n2C`
stdout: > 100 µM

###

- system.under.test: Human A1 AR (Homo sapiens)
- assay.text: Binding to recombinant human A1 AR (Dr. Stiles / CROs)
- details: given as affinity, type of constant not stated
quantity.measured: Ki (µM)
Please reply with the bare figure in µM and do not write the unit itself.

stdin: Item under review: `CCN(CCO)CCn1c(Cc2ccccc2)nc2c1c(=O)n(C)c(=O)n2C` . Reported Ki?
stdout: 40

###

- system.under.test: Human A1 AR (Homo sapiens, UniProt P30542)
- Sequence (P30542 whole entry): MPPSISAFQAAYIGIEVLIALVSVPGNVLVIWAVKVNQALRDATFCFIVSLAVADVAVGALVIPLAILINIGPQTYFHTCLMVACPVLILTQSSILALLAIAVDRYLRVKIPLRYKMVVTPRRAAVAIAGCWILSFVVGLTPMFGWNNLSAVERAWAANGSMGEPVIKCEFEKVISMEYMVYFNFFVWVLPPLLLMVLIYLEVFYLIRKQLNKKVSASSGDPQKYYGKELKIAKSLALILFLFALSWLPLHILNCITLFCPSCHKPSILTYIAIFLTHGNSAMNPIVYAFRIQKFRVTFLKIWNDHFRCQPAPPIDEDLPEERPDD
- assay.text: Radioligand binding, human A1 AR, 3H-DPCPX
- details: radioligand 3H-DPCPX
quantity.measured: Ki
Report field: quantity (unit follows the number).

stdin: For the compound shown here, `CCN(CCO)CCn1c(Cc2ccccc2)nc2c1c(=O)n(C)c(=O)n2C` , give the reported Ki.
stdout: 1930 nM

###

- system.under.test: UniProtKB P28647
- Sequence (P28647 whole entry): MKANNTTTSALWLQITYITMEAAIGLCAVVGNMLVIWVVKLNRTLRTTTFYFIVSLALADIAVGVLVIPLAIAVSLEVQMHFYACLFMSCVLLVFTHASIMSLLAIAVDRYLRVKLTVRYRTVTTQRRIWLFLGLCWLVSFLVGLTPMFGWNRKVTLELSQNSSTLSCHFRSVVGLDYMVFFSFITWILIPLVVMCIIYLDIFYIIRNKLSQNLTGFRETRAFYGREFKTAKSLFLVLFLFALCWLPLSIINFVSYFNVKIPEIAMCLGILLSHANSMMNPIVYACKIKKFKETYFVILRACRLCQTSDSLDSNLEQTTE
- assay.text: Radioligand binding, rat A3 AR, 125I-AB-MECA
- details: radioligand 125I-AB-MECA
quantity.measured: IC50
// unit must come after the numeric part

stdin: Provide value of IC50 for this record tested with UniProtKB P28647: CCN(CCO)CCn1c(Cc2ccccc2)nc2c1c(=O)n(C)c(=O)n2C [Bamiphylline, bamiphylline]
stdout: 36.6 µM

###

- system.under.test: UniProt:P30542
- assay.text: Radioligand binding, human A1 AR, 125I-BWA844U
- details: radioligand 125I-BWA844U
quantity.measured: Ki (µM)
Could you give me the number in µM? Just the number is fine.

stdin: // query Ki value for entry `CCN(CCO)CCn1c(Cc2ccccc2)nc2c1c(=O)n(C)c(=O)n2C`
stdout: 11.1

meta.source: patent US7696211B2
